B1: LYSMD4 (parent)
chain: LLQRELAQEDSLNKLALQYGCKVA

- Variants of: B1
- assayNotes: protein stability index of a GFP-peptide fusion (GPS, HEK-293T) (PSI 1-6); higher = more stable;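 further: lentivirally expressed fusions sorted by FACS into six bins by GFP to DsRed ratio, PSI derived from sequencing read proportions per bin multiplied by bin number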
- measurementParameters: c terminus: a fixed tail appended
Mark Met for reported protein stability index of 3 or greater; mark Not met for anything smaller.

A24N : Not met
L6M : Not met
L12G : Met

Next:
Exercise: Is the recorded value of protein stability index equal to or greater than 3 for this variant? `C21E`
Key: Met
